Tested on: gamma-aminobutyric acid (GABA) release from insect synaptosomes
Experiment: Release of 3H-labelled GABA from insect synaptosomes (Example H)
Assay type: biochemical
Settings: 1 = most potent of five compounds
Mark YES only for rank in decreasing order of potency (release of ^3 H-labelled GABA) values smaller than 3; exact matches and larger values are NO.

Here's what some known entries look like.
>  <Compound>
CC(C)CNC(=O)/C=C/C=C/CC/C=C\C=C\c1cccc(C(F)(F)F)c1

>  <Category label>
YES

$$$$
>  <Compound>
CC(C)CNC(=O)/C=C/CC/C=C\C=C\c1ccc2c(c1)OCO2 [reference compound]

>  <Category label>
NO

$$$$
>  <Compound>
CC(C)CNC(=O)/C=C/C=C/CC/C=C\C=C\c1ccc2c(c1)OCO2 [reference compound]

>  <Category label>
YES

$$$$

Attention now turns to another entry.
Q) I wonder whether `CC(C)CNC(=O)/C=C/CC/C=C\C=C\c1cccc(C(F)(F)F)c1` has rank in decreasing order of potency (release of ^3 H-labelled GABA) below 3. Can you tell?
A) NO
